experiment: chemical genetic growth profiling, strain panel (AID 1159580);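 further: tested at 20 µM; growth read once vehicle control cultures reached saturation at 30 °C; 1 = growth at the plate median or of vehicle wells; lower values mean less growth of the strain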; conditions: S. cerevisiae deletion strains, growth OD, locus YBR009C, strain hhf1, stronger effect = lower value
Among all 5,500 compounds or so, about 2,000 (36%) were called active. About 18% were inconclusive and are not listed. Some of the results follow.

| Compound | normalized growth |
| --- | --- |
| N[C@@H](CCC(=O)N[C@@H](CCSC(CC(=O)O)C(=O)O)C(=O)NCC(=O)O)C(=O)O (stereo partly specified) | 1.03 |
| CCOC(N)=O | 0.987 |
| Nc1ccc(S(=O)(=O)Nc2nccs2)cc1 | 1 |
| COc1ccc(CN(CCN(C)C)c2ncccn2)cc1 | 1.01 |
| COC(=O)[C@H]1[C@H]2C[C@@H]3c4[nH]c5cc(OC)ccc5c4CCN3C[C@H]2C[C@@H](OC(=O)c2cc(OC)c(OC)c(OC)c2)[C@@H]1OC | 1.01 |
| O=C1N=C(O)CN1/N=C\c1ccc(-c2ccc([N+](=O)[O-])cc2)o1 | 1 |

From: PubChem BioAssay AID1159580
